Each entry below lists one item and its recorded z-score value.
Assay: CREB reporter modulators under forskolin, primary screen, cell-based, PC12, CRE-LacZ reporter, forskolin-stimulated (AID 1146);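 also: PC12 cells with 6xCRE LacZ reporter stimulated by forskolin 10 µM; beta-galactosidase reporter signal reflecting CREB driven transcription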
Settings: luminescence, 4.5 h, higher = more signal, called active from +8 up or from −8 down
Form: value (number only, do not type unit).

Solved entries:
CCCCCN1CC=CC23O[C@@H]4/C=C\CCCOC(=O)C4[C@H]2C(=O)N(CCCCCCO)[C@@H]3C1=O (some centres undefined)	-0.43
[N-]=[N+]=NCc1ccccc1C[C@@]1(C(=O)NCC(O)CO)N=C(c2ccc(OCCCO)cc2)O[C@@H]1c1ccccc1CN=[N+]=[N-] (some centres undefined)	-0.554
CS(=O)(=O)CCOC(=O)C1=CC(CCCO)=CC(c2cccs2)N(Cc2cc3c(cc2Br)OCO3)C=C1C(=O)OCCS(C)(=O)=O (centres undefined)	0.72
COCC(=C=CC[C@H](O)c1ccc(OCCO)cc1)C[C@H](O)c1cc(Cl)cc(Cl)c1O	0.96

Entry O=C1O[C@H](c2ccccc2)[C@H](c2ccccc2)N2[C@H]1[C@@H](C(=O)O)[C@]1(C(=O)Nc3ccc(C#CC4=CCCCC4)cc31)[C@H]2c1ccc(OCCO)cc1 — recorded z-score = 3.42

The reported numbers originate from PubChem BioAssay.
